System: HL-60(TB) leukemia
Method: NCI tumour cell line growth inhibition, 48 h
Consider the following compounds and their measured TGI readings.

Compound | Cmp | TGI [µM]
CCOC(=O)C(=O)Nc1nc2ccc(OC)cc2s1 | > | 100
COc1ccc(N=C2C(=O)Nc3ccc(Br)cc32)cc1 | = | 42.7
Cc1cc(C)n(C(=CC(=O)C(Cl)Cl)n2nc(C)cc2C)n1 | = | 18.1
COc1ccc([C@H]2c3[nH]c4ccccc4c3C[C@H]3C(=O)N(CCCCCCC(=O)NO)CC(=O)N23)cc1 | > | 33.3
Nc1ncnc2c1ncn2C1C(O)C=C(CO)C1O (stereo unspecified) | > | 625
CC1CC(C)(C)CC(OCCN2CCCCC2)(c2ccccc2)C1 (stereo unspecified) | = | 27.9

---

System: IGROV1 ovarian
Method: NCI tumour cell line growth inhibition, 48 h
Consider the following compounds and their measured TGI readings.
Outcome Measure: TGI

Compound | Outcome Measure | Result
CC(C)NC(=O)OCCN=C1c2ccccc2C(Br)C(Br)c2ccccc21 (stereo unspecified) | TGI | 7.14 µM
C[N+](C)([O-])C12CC3CC(CC(C3)C1)C2 | TGI | > 100 µM
N#CC(c1cc(Cl)ncn1)c1nc2cc(C(F)(F)F)ccc2s1 (stereo unspecified) | TGI | 20.3 µM
CC(=O)Nc1ccc2c(c1)[nH]c(=O)c1cc(Cl)ccc12 | TGI | > 100 µM
Oc1ccccc1/C=N/c1nc(-c2ccccc2)cs1 | TGI | > 100 µM
CN(C)CCCNC(=O)N/N=C/c1ccccn1 | TGI | > 10 µM
COc1ccc(C2NC(c3ccc(OC)cc3)C(C)C(=O)C2C)cc1 (stereo unspecified) | TGI | > 100 µM
COc1cc(C(=O)Nc2ccc(-c3nc4ccccc4[nH]3)cc2)cc(OC)c1OC | TGI | 31.5 µM
Nc1cccc(C(=O)/C=C/c2ccccc2O)c1 | TGI | > 100 µM
COc1cc(-c2ccc[nH]2)[nH]c1/C=C1\N=C(C)C(C(=O)NC(C)C)=C1C | TGI | 25.4 µM
O=C(Nc1c(Cl)cc([N+](=O)[O-])cc1Cl)C(=O)C(C(=O)c1ccncc1)C1OC(=O)c2ccccc21 (stereo unspecified) | TGI | > 100 µM

---

System: HS 578T breast
Method: NCI tumour cell line growth inhibition, 48 h

Molecule | TGI
N#Cc1nc(-c2ccsc2)oc1N | > 100 µM
O=C(O)C1C2OC(C(Br)C2Br)C1C(=O)O (stereo unspecified) | > 100 µM
CCn1c(-c2cc3ccccc3cc2OC(C)=O)n[nH]c1=S | 54.6 µM
O=c1[nH]c(NCCCCCO)nc2nc[nH]c12 | > 100 µM
CN(C)c1ccc(/C=C2\N=C(c3ccccc3)N(c3nc4ccc(Sc5ccccc5)cc4[nH]3)C2=O)cc1 | > 100 µM
c1ccc2[nH]c(-c3cscn3)nc2c1 | > 100 µM

---

Test system: RXF 393 renal
Method: NCI tumour cell line growth inhibition, 48 h; in the data active = GI50 below about 0.43 µM; inactive = the rest
Classes used: Yes = active, No = inactive

Molecule | Assigned Category
COc1cc(C(=O)Nc2ccc(-c3nc4ccccc4[nH]3)cc2)cc(OC)c1OC | No
CN1CCC(C(=O)Nc2n[nH]c3nnc(-c4ccccc4)cc23)CC1 | No
Cc1ncc([N+](=O)[O-])n1CCOc1ccc(C(=O)/C=C/c2ccc(C(F)(F)F)cc2)cc1 | No
COc1ccc(C2=NOC3=c4ccccc4=CSC3=C2c2ccccc2)cc1 | No
CNc1ccc(CSc2ccc(C)cc2)cc1 | No
COc1cc(/C=C/C(=O)/C=C/c2ccc(-n3ccnc3)cc2)ccc1O | No
COc1ccc2cc1Oc1ccc(cc1)CC1c3c(cc(OC)c4c3Oc3cc5c(cc3O4)CCNC5C2)CCN1C (stereo unspecified) | No
CC(=O)O[C@H]1C(=O)[C@@]2(C)C([C@H](OC(=O)c3ccccc3)[C@]3(O)C[C@H](OC(=O)[C@H](O)[C@@H](NC(=O)c4ccc(Cl)cc4)c4ccccc4)C(C)=C1C3(C)C)C1(OC(C)=O)CO[C@@H]1C[C@@H]2O (stereo partly specified) | Yes
CN(Cc1cnc2nc(N)nc(N)c2n1)c1c(Cl)cc(C(=O)NC(CCC(=O)O)C(=O)O)cc1Br (stereo unspecified) | Yes
OCCN1CCCN(CCCN2c3ccccc3Sc3ccc(C(F)(F)F)cc32)CC1 | No
O=[N+]([O-])/C(=C/C=C/c1ccccc1)c1ccccc1 | No

The reported measurements were obtained from PubChem BioAssay (NCI).
